Tested on: KM12
Assay: NCI tumour cell line growth inhibition, 48 h
The source made the active and inactive calls. Rule as the data show it: active = GI50 up to about 1.1 µM and inactive = higher.
GI50: recorded values

Take a look at these entries with their results.
I am curious: what GI50 value has been reported for CC(C)C(=O)/C=C/c1ccc(Cl)c(Cl)c1 ?
14.8 µM (inactive)

// query GI50 value for entry Cc1ccc(-c2sc(-c3ccc(C)cc3)c3c2C2CCC3C2)cc1
> 50 µM (inactive)

Sample O=C(O)CSCC(=O)O — what was its GI50?
> 100 µM (inactive)

# get_value(readout='GI50', item= Cc1cc2c(c(/C=N/c3ccc(N(C)C)cc3)c1)OC1(C=C2)Oc2ccccc2C(=O)N1C (stereo not given) )
15.5 µM (inactive)

Request the reported GI50 associated with COc1ccc(/C=C(\C(C)=O)C(=O)Nc2ccccc2)cc1
> 100 µM (inactive)

Further cases:
Given COC(=O)c1ccccc1N(C(=O)c1ccccc1)c1ccccc1C , state its recorded GI50.
32.7 µM (inactive)

Name the reported GI50 value associated with the compound COC(=O)C1C=CCON2CCc3c(n(S(=O)(=O)c4ccccc4)c4ccccc34)C12 (stereo not given)
35.2 µM (inactive)

Recorded GI50 for N#Cc1ccccc1NC(=O)/C(=N\Nc1ccc([N+](=O)[O-])cc1)C1C(=O)NC(=O)NC1=O , please?
> 100 µM (inactive)

Dear colleague, I am looking for the recorded GI50 of the following compound: CCOC(=O)c1c(N2CCOCC2)[nH]c(=O)c(C(c2cccs2)c2c(O)c(C(=O)OCC)c(N3CCOCC3)[nH]c2=O)c1O
> 100 µM (inactive)

Entry O=c1[nH]c2cc([N+](=O)[O-])c(Nc3c4ccccc4nc4ccccc34)c([N+](=O)[O-])c2[nH]1 : reported GI50 = ?
2.26 µM (inactive)
